Assay: physchem
Conditions: organic solvent or mixture, solubility in Toluene
OBSERVABLE: solubility

Use these answered entries as a reference point.
# COMPOUND, solubility
data = [
    ("COc1ccc(N(c2ccc(OC)cc2)c2ccc(-c3ccc(N(c4ccc(OC)cc4)c4ccc(N(c5ccc(OC)cc5)c5ccc(-c6ccc(N(c7ccc(OC)cc7)c7ccc(OC)cc7)cc6)cc5)cc4)cc3)cc2)cc1", "> 460 mg/mL"),
    ("COc1ccc(N(c2ccc(OC)cc2)c2ccc3c(c2)C(C)(C)c2cc(N(c4ccc(OC)cc4)c4ccc(-c5ccc(N(c6ccc(OC)cc6)c6ccc7c(c6)C(C)(C)c6cc(N(c8ccc(OC)cc8)c8ccc(OC)cc8)ccc6-7)cc5)cc4)ccc2-3)cc1", "160 to 240 mg/mL"),
    ("COc1ccc(N(c2ccc(OC)cc2)c2ccc(-c3ccc(N(c4ccc(OC)cc4)c4ccc(-c5ccc(N(c6ccc(OC)cc6)c6ccc(-c7ccc(N(c8ccc(OC)cc8)c8ccc(OC)cc8)cc7)cc6)cc5)cc4)cc3)cc2)cc1", "320 to 500 mg/mL"),
]

Please turn your attention to the following entry.
Using known records, supply solubility for CCOc1ccc(N(c2ccc(C3=CCC(N(c4ccc(OC)cc4)c4ccc(-c5ccc(N(c6ccc(OC)cc6)c6ccc(-c7ccc(N(c8ccc(OCC)cc8)c8cccc9ccccc89)cc7)cc6)cc5)cc4)C=C3)cc2)c2cccc3ccccc23)cc1 (stereo not shown)
400 to 800 mg/mL
